# Test system: angiotensin I-converting enzyme (ACE)
# test description: ACE inhibitory activity assay (fluorometric ACE activity assay kit)
# Assay type: biochemical
# measurement context: peptide sample 1 mg/mL; replicate 1
measurement label: ACE inhibitory activity (%)
Number only, in %; omit the unit.

Q) // query ACE inhibitory activity value for entry RPLAKIIP [P8, synthesized peptide identified from jellyfish fraction PUR20C]
A) 32.44

Q) // query ACE inhibitory activity value for entry KFNEVVYFL [P15, synthesized peptide identified from jellyfish fraction PUR20C]
A) 57.63

Q) // query ACE inhibitory activity value for entry LNIPKPKLNLL [P11, synthesized peptide identified from jellyfish fraction PUR20C]
A) 19.27

Q) // query ACE inhibitory activity value for entry LMFMAVAFF [P12, synthesized peptide identified from jellyfish fraction PUR20C]
A) 49.61

Q) // query ACE inhibitory activity value for entry GKNCGETVWE [P9, synthesized peptide identified from jellyfish fraction PUR20C]
A) 5.53

Q) // query ACE inhibitory activity value for entry MVVACVLPEA [P16, synthesized peptide identified from jellyfish fraction PUR20C]
A) 92.27

Q) // query ACE inhibitory activity value for entry NFTVLCDSLE [P10, synthesized peptide identified from jellyfish fraction PUR20C]
A) 11.25

Q) // query ACE inhibitory activity value for entry HSVLTASYRN [P5, synthesized peptide identified from jellyfish fraction PUR20C]
A) 24.71

Q) // query ACE inhibitory activity value for entry RARVVPMY [P6, synthesized peptide identified from jellyfish fraction PUR20C]
A) 33.87

Q) // query ACE inhibitory activity value for entry EQIYPMGEGDEL [P4, synthesized peptide identified from jellyfish fraction PUR20C]
A) 5.53

Q) // query ACE inhibitory activity value for entry EIDKLPPESRP [P7, synthesized peptide identified from jellyfish fraction PUR20C]
A) 8.11
